assay: Kinetic solubility of the compound at pH 7.4; format: physicochemical; details: buffer, read-out: Kinetic_solubility

[
  {
    "smiles.record": "Cc1cc(N)c(S(N)(=O)=O)cc1C(=O)Nc1cc(F)c(F)c(F)c1",
    "solubility kinetic [µM]": 29.2
  }
]

----------
assay: Metabolic stability of the compound in human hepatocytes assessed as parent compound remaining measured after 4 hrs; assay type: ADME, cell-based, Hepatocyte; details: read-out: Stability

[
  {
    "smiles.record": "Cc1cc(N)c(S(N)(=O)=O)cc1C(=O)Nc1cc(F)c(F)c(F)c1",
    "remaining at 4 h": "90%"
  }
]
